Test: Particle size distribution by laser diffraction (Sympatec Helos, 1 bar dispersive pressure)
Format: physicochemical
Conditions: S-diol batches; production scale recrystallisation from ethanol
Where a name gives a salt, the structure may show the parent alone.
measured.endpoint: X50 (median particle size)
Param answer (str): number followed by unit.

So, CN(C)CCC[C@@]1(c2ccc(F)cc2)OCc2cc(C#N)ccc21 [Example 1, escitalopram oxalate] ? Its X50 (median particle size) was 171 µm
